Measured # Spec, listed per entry for reference.
tgt: sHLA-E*01:03 (Homo sapiens, UniProt P13747)
Construct: A soluble construct of HLA-E*01:03 was constructed by removing the transmembrane and cytoplasmic domains; expressed in transfected cells; host or cells: human U-373MG cells, uninfected or infected with CMV strain AD169
test.protocol: Identification of peptides eluted from soluble HLA-E of CMV-infected vs uninfected U-373MG cells by immunoaffinity purification and LC-MS/MS
Assay type: binding
recorded.conditions: number of spectra for the peptide, LC-MS/MS identification of HLA-E ligands (Table 1)
Could you respond with only the numeric value?

1. SASSATACTSGVMT    439
2. SDEELVTTER    406
3. VTGGGAMAGASTSAGR    420

Continue with the next sequence.
IN: What is its # Spec for sHLA-E*01:03 (Homo sapiens, UniProt P13747)? Entry: SASSATACTSGVMTR
OUT: 439
